Please provide measured abundance fitness for the entries that follow.
B1: Histone H1t, residues 44 to 112; numbered along this chain, P22492 (parent)
chain: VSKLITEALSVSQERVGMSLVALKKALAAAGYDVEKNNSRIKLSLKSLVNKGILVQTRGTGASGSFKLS

Variants of: B1
Experiment: abundance fitness (aPCA) (normalised: wild type 0, dead -1); higher = more abundant; growth selection in yeast, the domain comes from the species named
Conditions: Homo sapiens
Answers are plain numbers.

Here are 5 variants together with their reported answers.
{"VARIANT SPEC": "I41M", "abundance fitness": -0.191}
{"VARIANT SPEC": "V55S", "abundance fitness": 0.071}
{"VARIANT SPEC": "T57G", "abundance fitness": -0.102}
{"VARIANT SPEC": "K51A", "abundance fitness": -0.164}
{"VARIANT SPEC": "K46D", "abundance fitness": -0.329}

List the reported abundance fitness of each variant below.
1. S39M
2. L27H
3. S69G
4. K25L

Result:
1: -0.228; 2: -0.838; 3: -0.218; 4: -0.862
